# Target entity: UniProt P47743
# Test description: Concentration for half maximal activation of metabotropic glutamate mGluR8 in mouse
Assay metric: pEC50
By convention, pEC50 is the negative base-10 log of a molar concentration.

>  <Compound>
N[C@@H](CCP(=O)(O)O)C(=O)O

>  <pEC50>
6.40

$$$$

Proceeding to the next compound to report its pEC50.
**Query** Answer with the recorded pEC50 for the compound listed here: N[C@@H](CCC(=O)O)C(=O)O [GLUTAMIC ACID]
**Result** 7.66

====

# Target entity: Metabotropic glutamate receptor 3 (Rattus norvegicus, UniProt P31422)
# Test description: Concentration for half maximal activation of metabotropic glutamate mGluR3 in rat
Parameter pEC50: see the listing below.
By convention, pEC50 is the negative base-10 log of a molar concentration.

>  <Compound>
N[C@@H](CCC(=O)O)C(=O)O

>  <pEC50>
5.52

$$$$
>  <Compound>
N[C@H](C(=O)O)C1[C@@H](C(=O)O)[C@@H]1C(=O)O (stereo not given in full)

>  <pEC50>
6.52

$$$$
>  <Compound>
N[C@@H](Cn1oc(=O)[nH]c1=O)C(=O)O [QUISQUALATE]

>  <pEC50>
4.40

$$$$

**Query** Answer with the recorded pEC50 for the compound listed here: N[C@H](C(=O)O)c1cc(=O)[nH]o1
**Result** 5.00

**Query** Answer with the recorded pEC50 for the compound listed here: N[C@@]1(C(=O)O)CC[C@@H](C(=O)O)C1
**Result** 5.10

====

# Target entity: Metabotropic glutamate receptor 5 (Homo sapiens, UniProt P41594)
# Test description: Concentration for half maximal activation of metabotropic glutamate mGluR5a in human
Assay metric: pEC50
By convention, pEC50 is the negative base-10 log of a molar concentration.

**Query** Answer with the recorded pEC50 for the compound listed here: N[C@@H](Cn1oc(=O)[nH]c1=O)C(=O)O [QUISQUALATE]
**Result** 6.82

====

Parameter EC50: see the listing below.
# Target entity: Metabotropic glutamate receptor 6 (Rattus norvegicus)
# Sequence (P35349 whole entry): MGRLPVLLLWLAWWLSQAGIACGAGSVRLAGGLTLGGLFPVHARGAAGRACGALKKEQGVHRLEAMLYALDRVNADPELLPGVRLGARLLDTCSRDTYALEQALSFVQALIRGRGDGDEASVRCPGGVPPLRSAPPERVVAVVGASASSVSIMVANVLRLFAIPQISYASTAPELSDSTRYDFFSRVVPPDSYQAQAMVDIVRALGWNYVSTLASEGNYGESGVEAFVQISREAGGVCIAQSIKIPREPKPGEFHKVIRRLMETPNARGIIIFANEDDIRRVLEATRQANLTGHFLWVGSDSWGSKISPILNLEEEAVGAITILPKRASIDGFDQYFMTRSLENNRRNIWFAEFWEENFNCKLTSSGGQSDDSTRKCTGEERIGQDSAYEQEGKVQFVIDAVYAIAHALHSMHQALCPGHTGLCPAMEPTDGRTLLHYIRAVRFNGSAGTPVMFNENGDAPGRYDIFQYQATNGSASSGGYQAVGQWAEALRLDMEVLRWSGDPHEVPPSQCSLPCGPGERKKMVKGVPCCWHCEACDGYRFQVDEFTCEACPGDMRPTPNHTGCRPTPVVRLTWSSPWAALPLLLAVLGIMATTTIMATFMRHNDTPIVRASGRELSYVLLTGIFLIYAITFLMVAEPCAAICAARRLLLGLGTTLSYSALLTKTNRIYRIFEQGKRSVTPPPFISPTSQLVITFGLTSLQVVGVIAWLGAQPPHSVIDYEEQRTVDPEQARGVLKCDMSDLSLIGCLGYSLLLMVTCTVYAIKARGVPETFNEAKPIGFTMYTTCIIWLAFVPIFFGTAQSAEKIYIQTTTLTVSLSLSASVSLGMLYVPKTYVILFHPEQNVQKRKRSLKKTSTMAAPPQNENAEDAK
# Test description: Concentration for half maximal activation of metabotropic glutamate mGluR6 in rat

>  <Molecule>
N[C@@]1(C(=O)O)CC[C@@H](C(=O)O)C1

>  <EC50>
> 200 µM

$$$$
>  <Molecule>
N[C@H](C(=O)O)c1cc(=O)[nH]o1 [IBOTENIC ACID]

>  <EC50>
1000 µM

$$$$
>  <Molecule>
N[C@@H](CCC(=O)O)C(=O)O [GLUTAMIC ACID]

>  <EC50>
16 µM

$$$$
>  <Molecule>
N[C@@H](CCP(=O)(O)O)C(=O)O

>  <EC50>
0.9 µM

$$$$
>  <Molecule>
N[C@@H](COP(=O)(O)O)C(=O)O [DEXFOSFOSERINE]

>  <EC50>
2.7 µM

$$$$

Proceeding to the next molecule to report its EC50.
**Query** Answer with the recorded EC50 for the molecule listed here: N[C@@H](Cn1oc(=O)[nH]c1=O)C(=O)O [QUISQUALATE]
**Result** 1000 µM

====

# Target entity: Metabotropic glutamate receptor 1 (Rattus norvegicus, UniProt P23385)
# Sequence (P23385 whole entry): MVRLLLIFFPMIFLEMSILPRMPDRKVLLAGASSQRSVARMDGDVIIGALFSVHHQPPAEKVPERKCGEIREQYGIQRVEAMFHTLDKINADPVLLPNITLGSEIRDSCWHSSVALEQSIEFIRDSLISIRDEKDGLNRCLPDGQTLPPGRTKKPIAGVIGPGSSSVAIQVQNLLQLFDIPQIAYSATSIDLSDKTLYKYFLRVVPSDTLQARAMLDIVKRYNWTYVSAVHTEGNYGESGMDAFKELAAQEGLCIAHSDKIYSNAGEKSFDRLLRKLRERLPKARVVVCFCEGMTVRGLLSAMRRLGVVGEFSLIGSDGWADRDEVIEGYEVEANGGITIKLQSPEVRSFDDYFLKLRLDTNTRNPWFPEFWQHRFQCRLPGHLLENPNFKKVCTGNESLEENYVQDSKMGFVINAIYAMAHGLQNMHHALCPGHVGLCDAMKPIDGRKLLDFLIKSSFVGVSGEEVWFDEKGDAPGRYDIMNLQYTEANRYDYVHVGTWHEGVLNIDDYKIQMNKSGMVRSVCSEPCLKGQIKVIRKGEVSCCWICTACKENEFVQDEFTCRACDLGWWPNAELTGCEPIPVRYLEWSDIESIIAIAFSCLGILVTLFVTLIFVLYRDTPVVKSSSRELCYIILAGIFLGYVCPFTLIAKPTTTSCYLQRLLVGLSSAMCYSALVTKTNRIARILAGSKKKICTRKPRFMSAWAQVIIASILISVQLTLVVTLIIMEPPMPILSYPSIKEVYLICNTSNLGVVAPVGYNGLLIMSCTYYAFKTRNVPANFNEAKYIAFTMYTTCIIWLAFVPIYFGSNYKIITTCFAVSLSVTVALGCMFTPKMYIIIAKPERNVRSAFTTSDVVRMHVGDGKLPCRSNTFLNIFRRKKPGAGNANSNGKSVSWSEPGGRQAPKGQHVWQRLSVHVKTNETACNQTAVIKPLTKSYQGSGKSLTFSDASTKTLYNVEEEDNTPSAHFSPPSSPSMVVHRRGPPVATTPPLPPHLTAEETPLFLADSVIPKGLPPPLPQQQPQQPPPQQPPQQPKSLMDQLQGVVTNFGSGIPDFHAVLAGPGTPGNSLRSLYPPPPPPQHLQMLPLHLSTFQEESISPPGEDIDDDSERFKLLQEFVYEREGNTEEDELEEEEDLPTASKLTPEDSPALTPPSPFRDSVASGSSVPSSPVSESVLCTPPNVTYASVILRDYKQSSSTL
# Test description: Concentration for half maximal activation of metabotropic glutamate mGluR1a in rat
Parameter EC50: see the listing below.

>  <Molecule>
N[C@H](C(=O)O)c1cc(=O)[nH]o1

>  <EC50>
6 µM

$$$$

Proceeding to the next molecule to report its EC50.
**Query** Answer with the recorded EC50 for the molecule listed here: N[C@H](C(=O)O)C1[C@@H](C(=O)O)[C@@H]1C(=O)O (some centres not stated)
**Result** > 1000 µM

====

# Target entity: Metabotropic glutamate receptor 4 (Rattus norvegicus, UniProt P31423)
# Sequence (P31423 whole entry): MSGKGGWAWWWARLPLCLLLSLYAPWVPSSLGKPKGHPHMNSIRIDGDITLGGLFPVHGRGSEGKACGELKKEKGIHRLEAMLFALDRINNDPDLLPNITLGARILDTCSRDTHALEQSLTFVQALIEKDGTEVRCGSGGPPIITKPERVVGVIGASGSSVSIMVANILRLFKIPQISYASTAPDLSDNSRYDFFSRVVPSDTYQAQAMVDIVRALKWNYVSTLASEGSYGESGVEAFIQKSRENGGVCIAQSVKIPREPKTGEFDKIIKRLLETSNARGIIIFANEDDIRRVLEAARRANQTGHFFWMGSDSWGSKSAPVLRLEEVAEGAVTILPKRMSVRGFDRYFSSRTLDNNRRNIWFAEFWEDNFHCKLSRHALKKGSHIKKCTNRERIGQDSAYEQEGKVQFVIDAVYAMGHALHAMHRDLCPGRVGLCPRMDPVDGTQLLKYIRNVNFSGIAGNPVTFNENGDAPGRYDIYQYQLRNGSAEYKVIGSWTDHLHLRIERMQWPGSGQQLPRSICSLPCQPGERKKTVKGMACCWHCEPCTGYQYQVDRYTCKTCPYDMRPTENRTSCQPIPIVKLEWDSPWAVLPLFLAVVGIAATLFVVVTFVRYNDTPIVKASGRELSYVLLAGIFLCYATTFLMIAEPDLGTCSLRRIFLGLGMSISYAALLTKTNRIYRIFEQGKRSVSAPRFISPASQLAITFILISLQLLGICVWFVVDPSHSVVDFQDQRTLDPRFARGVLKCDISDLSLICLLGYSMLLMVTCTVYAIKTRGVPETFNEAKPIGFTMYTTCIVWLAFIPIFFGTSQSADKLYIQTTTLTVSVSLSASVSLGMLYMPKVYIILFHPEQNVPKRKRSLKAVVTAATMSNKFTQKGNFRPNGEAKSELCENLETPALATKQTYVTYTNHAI
# Test description: Concentration for half maximal activation of metabotropic glutamate mGluR4a in rat
Parameter pEC50: see the listing below.
By convention, pEC50 is the negative base-10 log of a molar concentration.

>  <Smiles>
N[C@H](C(=O)O)c1cc(=O)[nH]o1

>  <Target entity>
Metabotropic glutamate receptor 4 (Rattus norvegicus, UniProt P31423)

>  <Value measured>
3.23

$$$$

Proceeding to the next compound to report its pEC50.
**Query** Fill in: pEC50 on Metabotropic glutamate receptor 4 (Rattus norvegicus, UniProt P31423), entry N[C@@H](COP(=O)(O)O)C(=O)O
**Result** 5.40

====

# Target entity: UniProt:Q14831
# Test description: Concentration for half maximal activation of metabotropic glutamate mGluR7 in human
pEC50: −log10 of the molar value.
Parameter pEC50: see the listing below.

>  <Compound>
N[C@@]1(C(=O)O)CC[C@@H](C(=O)O)C1

>  <Assay metric>
pEC50

>  <Value measured>
< 3.00

$$$$
>  <Compound>
N[C@@H](Cn1oc(=O)[nH]c1=O)C(=O)O [QUISQUALATE]

>  <Assay metric>
pEC50

>  <Value measured>
< 3.00

$$$$
>  <Compound>
N[C@@H](CCP(=O)(O)O)C(=O)O

>  <Assay metric>
pEC50

>  <Value measured>
3.70

$$$$

**Query** Fill in: pEC50 on UniProt:Q14831, entry N[C@@H](COP(=O)(O)O)C(=O)O [DEXFOSFOSERINE]
**Result** > 3.70

**Query** Fill in: pEC50 on UniProt:Q14831, entry N[C@@H](CCC(=O)O)C(=O)O [GLUTAMIC ACID]
**Result** < 3.30

====

# Target entity: Metabotropic glutamate receptor 1 (Rattus norvegicus, UniProt P23385)
# Test description: Concentration for half maximal activation of metabotropic glutamate mGluR1c in rat
Assay metric: EC50 (µM)
Just the number in µM, nothing appended.

**Query** Fill in: EC50 on Metabotropic glutamate receptor 1 (Rattus norvegicus, UniProt P23385), entry N[C@H](C(=O)O)c1cc(=O)[nH]o1 [IBOTENIC ACID]
**Result** 60

====

Parameter pEC50: see the listing below.
# Target entity: Metabotropic glutamate receptor 7 (Rattus norvegicus)
# Test description: Concentration for half maximal activation of metabotropic glutamate mGluR7 in rat
pEC50: −log10 of the molar value.

Solved cases below.
>  <Compound>
N[C@@]1(C(=O)O)CC[C@@H](C(=O)O)C1

>  <Value measured>
< 3.00

$$$$
>  <Compound>
N[C@@H](Cn1oc(=O)[nH]c1=O)C(=O)O [QUISQUALATE]

>  <Value measured>
< 3.00

$$$$

Proceeding to the next compound to report its pEC50.
**Query** Answer with the recorded pEC50 for the compound listed here: N[C@@H](COP(=O)(O)O)C(=O)O
**Result** 3.80

====

# Target entity: UniProtKB P23385
# Test description: Concentration for half maximal activation of metabotropic glutamate mGluR1b in rat
Assay metric: EC50 (µM)
Just the number in µM, nothing appended.

**Query** Answer with the recorded EC50 for the compound listed here: N[C@H](C(=O)O)c1cc(=O)[nH]o1
**Result** 44

====

# Target entity: Metabotropic glutamate receptor 5 (Rattus norvegicus, UniProt P31424)
# Sequence (P31424 whole entry): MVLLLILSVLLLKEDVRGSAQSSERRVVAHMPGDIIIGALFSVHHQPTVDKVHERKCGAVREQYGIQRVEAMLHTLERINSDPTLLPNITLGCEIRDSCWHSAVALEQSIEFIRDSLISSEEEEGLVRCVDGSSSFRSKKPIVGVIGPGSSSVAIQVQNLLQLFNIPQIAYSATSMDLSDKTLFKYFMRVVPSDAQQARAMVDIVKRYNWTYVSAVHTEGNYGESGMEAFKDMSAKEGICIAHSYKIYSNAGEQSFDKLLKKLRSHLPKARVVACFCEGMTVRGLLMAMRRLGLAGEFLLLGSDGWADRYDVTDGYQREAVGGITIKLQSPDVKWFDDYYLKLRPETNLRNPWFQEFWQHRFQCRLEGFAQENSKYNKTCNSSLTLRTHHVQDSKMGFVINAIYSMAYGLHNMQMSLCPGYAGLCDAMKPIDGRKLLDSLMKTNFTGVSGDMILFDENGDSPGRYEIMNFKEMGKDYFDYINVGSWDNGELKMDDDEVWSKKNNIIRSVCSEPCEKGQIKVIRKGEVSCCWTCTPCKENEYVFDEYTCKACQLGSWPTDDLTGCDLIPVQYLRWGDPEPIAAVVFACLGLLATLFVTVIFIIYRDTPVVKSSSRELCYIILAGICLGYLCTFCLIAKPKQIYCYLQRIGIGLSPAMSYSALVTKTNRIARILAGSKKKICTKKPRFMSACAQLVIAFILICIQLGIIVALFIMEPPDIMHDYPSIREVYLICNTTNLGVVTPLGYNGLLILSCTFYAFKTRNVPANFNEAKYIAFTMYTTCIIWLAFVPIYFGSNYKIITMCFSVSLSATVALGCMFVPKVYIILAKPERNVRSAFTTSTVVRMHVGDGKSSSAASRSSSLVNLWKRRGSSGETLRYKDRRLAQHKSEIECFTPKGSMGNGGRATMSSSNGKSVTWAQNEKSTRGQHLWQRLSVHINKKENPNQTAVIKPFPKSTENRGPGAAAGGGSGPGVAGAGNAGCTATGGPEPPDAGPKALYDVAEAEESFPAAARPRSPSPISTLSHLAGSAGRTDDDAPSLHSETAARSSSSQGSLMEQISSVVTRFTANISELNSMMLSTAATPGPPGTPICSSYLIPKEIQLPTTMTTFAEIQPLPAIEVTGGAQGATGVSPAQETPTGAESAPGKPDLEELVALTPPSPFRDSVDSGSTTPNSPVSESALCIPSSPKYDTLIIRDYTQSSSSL
# Test description: Concentration for half maximal activation of metabotropic glutamate mGluR5a in rat
Assay metric: pEC50
By convention, pEC50 is the negative base-10 log of a molar concentration.

**Query** Fill in: pEC50 on Metabotropic glutamate receptor 5 (Rattus norvegicus, UniProt P31424), entry N[C@@]1(C(=O)O)CC[C@@H](C(=O)O)C1
**Result** 4.30

====

# Target entity: Metabotropic glutamate receptor 2 (Homo sapiens, UniProt Q14416)
# Sequence (Q14416 whole entry): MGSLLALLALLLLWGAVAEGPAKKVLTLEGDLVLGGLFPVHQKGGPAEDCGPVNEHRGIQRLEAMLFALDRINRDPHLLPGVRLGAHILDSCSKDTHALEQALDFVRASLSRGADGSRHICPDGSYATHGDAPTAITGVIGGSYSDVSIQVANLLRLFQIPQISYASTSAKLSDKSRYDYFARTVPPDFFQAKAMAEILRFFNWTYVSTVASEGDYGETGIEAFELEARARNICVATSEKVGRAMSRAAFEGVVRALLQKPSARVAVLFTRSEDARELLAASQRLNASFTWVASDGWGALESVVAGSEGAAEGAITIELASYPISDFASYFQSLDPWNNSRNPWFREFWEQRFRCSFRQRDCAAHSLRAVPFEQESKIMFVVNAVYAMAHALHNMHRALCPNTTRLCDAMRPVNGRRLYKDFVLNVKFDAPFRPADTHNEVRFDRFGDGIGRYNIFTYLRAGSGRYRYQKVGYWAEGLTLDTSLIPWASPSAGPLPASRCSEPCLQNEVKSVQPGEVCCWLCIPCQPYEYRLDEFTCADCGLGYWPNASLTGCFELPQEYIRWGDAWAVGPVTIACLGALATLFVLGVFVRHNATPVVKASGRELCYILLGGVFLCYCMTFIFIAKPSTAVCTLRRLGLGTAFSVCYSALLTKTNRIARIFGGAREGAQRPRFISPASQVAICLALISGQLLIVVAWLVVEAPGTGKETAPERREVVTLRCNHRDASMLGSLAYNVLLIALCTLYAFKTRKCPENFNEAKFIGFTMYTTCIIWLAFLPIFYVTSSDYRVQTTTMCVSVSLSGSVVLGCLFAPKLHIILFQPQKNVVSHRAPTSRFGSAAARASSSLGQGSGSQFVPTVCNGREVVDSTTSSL
# Test description: Concentration for half maximal activation of metabotropic glutamate mGluR2 in human
Parameter EC50: see the listing below.
Just the number in µM, nothing appended.

>  <Smiles>
N[C@H](C(=O)O)[C@H]1C[C@@H]1C(=O)O

>  <EC50 (µM)>
0.38

$$$$

Proceeding to the next molecule to report its EC50.
**Query** Answer with the recorded EC50 for the molecule listed here: N[C@@]1(C(=O)O)CC[C@@H](C(=O)O)C1
**Result** 12.1

====

Parameter pEC50: see the listing below.
# Target entity: Metabotropic glutamate receptor 5 (Rattus norvegicus)
# Test description: Concentration for half maximal activation of metabotropic glutamate mGluR5b in rat
By convention, pEC50 is the negative base-10 log of a molar concentration.

>  <Compound>
N[C@H](C(=O)O)c1cc(=O)[nH]o1 [IBOTENIC ACID]

>  <Target entity>
Metabotropic glutamate receptor 5 (Rattus norvegicus)

>  <pEC50>
5.10

$$$$

**Query** Answer with the recorded pEC50 for the compound listed here: N[C@@H](Cn1oc(=O)[nH]c1=O)C(=O)O [QUISQUALATE]
**Result** 6.70

====

# Target entity: Metabotropic glutamate receptor 2 (Rattus norvegicus)
# Test description: Concentration for half maximal activation of metabotropic glutamate mGluR2 in rat
Assay metric: pEC50
By convention, pEC50 is the negative base-10 log of a molar concentration.

>  <Compound>
N[C@H](C(=O)O)[C@H]1C[C@@H]1C(=O)O

>  <Target entity>
Metabotropic glutamate receptor 2 (Rattus norvegicus)

>  <pEC50>
6.12

$$$$

Proceeding to the next compound to report its pEC50.
**Query** Fill in: pEC50 on Metabotropic glutamate receptor 2 (Rattus norvegicus), entry N[C@H](C(=O)O)C1[C@@H](C(=O)O)[C@@H]1C(=O)O (some centres undefined)
**Result** 6.52

Attribution: ChEMBL document CHEMBL1128305
